Target: human cannabinoid type 1 (CB1) receptor (human, UniProt P21554 1-472)
Sequence (P21554 whole entry): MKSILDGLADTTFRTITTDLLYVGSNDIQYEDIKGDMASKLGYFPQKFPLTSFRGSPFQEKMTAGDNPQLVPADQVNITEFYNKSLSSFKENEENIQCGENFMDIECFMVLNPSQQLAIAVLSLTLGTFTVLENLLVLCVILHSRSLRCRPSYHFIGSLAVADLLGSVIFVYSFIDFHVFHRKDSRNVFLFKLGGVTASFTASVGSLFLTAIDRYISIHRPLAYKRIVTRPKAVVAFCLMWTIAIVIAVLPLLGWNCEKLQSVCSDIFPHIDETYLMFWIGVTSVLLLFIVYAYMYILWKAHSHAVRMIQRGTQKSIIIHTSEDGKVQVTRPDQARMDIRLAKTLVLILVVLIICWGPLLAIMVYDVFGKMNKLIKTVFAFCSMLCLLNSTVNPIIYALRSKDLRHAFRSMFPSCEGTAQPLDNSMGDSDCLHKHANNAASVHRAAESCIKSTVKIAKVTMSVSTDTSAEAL
Assay: cell-based or functional assay
ENDPOINT_NAME: cAMP assay IC50 (nM)
Answer with a number only, understood to be in nM.

Value lookup for cAMP assay IC50; key = m24C4 (antibody, V domains shown) VH: QVQLQQSGAELVKPGASVKISCKASGYEFSYYWMNWVKQRPGKGLEWIGQIYPGDGDTNYNGKFKGKATLTADKSSSTAYMQLSSLTSEDSAVYFCARSHGNYMHYWGQGTSVTVSS VL: QIVLTQSPAIMSASLGERITLTCTASSSVSSSYLHWYQQKPGSSPKLWIYSTSNLASGVPTRFSGSGSGTSFSLTISTMEAEDAATYYCHQYHRSPRTFGGGTKLEIKR 5
